Sourced from patent US20230235080A1

Experimental target: T1, human Trop-2-ECD-6His fusion protein (human, UniProt P09758 27-274)
T1 construct: Expressed in a human 293 cell line; also called huTrop-2; human Trop-2 antigen
T1 sequence: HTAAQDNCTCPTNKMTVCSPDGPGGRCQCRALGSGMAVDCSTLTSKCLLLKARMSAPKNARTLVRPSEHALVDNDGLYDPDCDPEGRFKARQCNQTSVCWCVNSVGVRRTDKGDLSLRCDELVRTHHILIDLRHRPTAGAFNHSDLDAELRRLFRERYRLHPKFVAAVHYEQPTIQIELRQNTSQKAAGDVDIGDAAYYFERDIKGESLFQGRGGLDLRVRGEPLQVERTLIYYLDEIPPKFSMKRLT
Experiment notes: antigen binding ELISA on immobilized human Trop-2-ECD-6His
Reported metric: pEC50
Numbers only, as −log10 of the molar value.

Binder | pEC50
humanized IgG #118-2-5 HuB/LuY (antibody, V domains shown, Full-length IgG expressed in HEK293-6E cells; also called 6 (HuB/LuY)) VH: QVQLKQSGPGLVAPSQSLSITCTVSGFSLTSYGVNWIRQPPGKGLEWIGVMWAGGSTNYNSALMSRVTISVDTSKNQFSLKLSSVTAADTAVYYCARDENWDGAWFAYWGQGTLVTVSS VL: DIVMTQSPSSLAVSLGERATMSCKSSQSLLNSGTRKNYLAWYQQKPGQPPKLLISWASSRESGVPDRFSGSGSGTDFTLTISSVQAEDLAVYYCKQSYNLFTFGGGTKVEIK | 11.40

# ---- query binder ----
Ask: So what's the measured pEC50 for this one? #118-2-5 mouse H4-2/L3-3 (antibody, V domains shown, The label H4-2/L3-3 is not explained) VH: QVQLKQSGPGLVAPSQSLSITCTVSGFSLTSYGVNWIRQPPGKGLEWLGVMWAGGSTNYNSALMSRLSISKDNSKSQVFLKMNSLQTDDTGMYYCARDENWDGAWFAYWGQGTLVTVS VL: DIQMTQSPSSLAVSAGEKVTMSCKSSQSLLNSGTRKNYLAWYQQKPGQSPKLLISWASSRESGVPDRFTGSGSGTDFTLTISSVQAEDLAVYYCKQSYNLFTFGGGTKLELK
Result: 10.62
